Recorded values, source patent EP4588489A1.

EC50(nM), inhibition of BxPC-3 cell proliferation overview
Biological target: T1, TROP2 (UniProt P09758 27-323, limits assumed)
T1 sequence (looked up): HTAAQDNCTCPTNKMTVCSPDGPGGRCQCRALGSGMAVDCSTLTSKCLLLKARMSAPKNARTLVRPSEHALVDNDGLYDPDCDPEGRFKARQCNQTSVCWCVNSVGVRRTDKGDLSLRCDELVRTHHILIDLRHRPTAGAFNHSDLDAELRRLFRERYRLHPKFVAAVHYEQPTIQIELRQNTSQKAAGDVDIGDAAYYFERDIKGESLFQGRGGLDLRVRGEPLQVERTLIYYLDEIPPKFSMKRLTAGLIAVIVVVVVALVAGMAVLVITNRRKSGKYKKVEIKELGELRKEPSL
Assay: cell-based or functional assay
Endpoint name: EC50(nM), inhibition of BxPC-3 cell proliferation

[[record]]
binder = "hRS7-C7-D4 (antibody, human IgG1, kappa, V domains shown, linker-drug comp7 on cysteines of reduced interchain disulfides; DAR 3.56) VH: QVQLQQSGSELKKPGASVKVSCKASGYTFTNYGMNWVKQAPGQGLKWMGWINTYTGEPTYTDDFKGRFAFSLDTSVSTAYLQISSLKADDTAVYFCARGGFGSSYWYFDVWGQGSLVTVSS VL: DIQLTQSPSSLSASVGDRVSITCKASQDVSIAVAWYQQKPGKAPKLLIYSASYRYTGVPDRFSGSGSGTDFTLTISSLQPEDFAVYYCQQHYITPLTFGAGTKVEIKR"
recorded_value = 0.305

[[record]]
binder = "hRS7-C9-D4 (antibody, human IgG1, kappa, V domains shown, linker-drug comp9 on cysteines of reduced interchain disulfides; DAR 3.54) VH: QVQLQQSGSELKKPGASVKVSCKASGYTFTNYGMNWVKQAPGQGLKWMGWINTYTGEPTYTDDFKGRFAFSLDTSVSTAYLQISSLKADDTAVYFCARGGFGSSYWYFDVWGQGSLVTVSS VL: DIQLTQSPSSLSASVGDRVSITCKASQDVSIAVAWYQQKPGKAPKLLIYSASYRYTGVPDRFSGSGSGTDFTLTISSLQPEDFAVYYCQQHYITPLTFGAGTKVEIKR"
recorded_value = 0.377

[[record]]
binder = "hRS7-C6-D4 (antibody, human IgG1, kappa, V domains shown, linker-drug comp6 on cysteines of reduced interchain disulfides; DAR 3.49) VH: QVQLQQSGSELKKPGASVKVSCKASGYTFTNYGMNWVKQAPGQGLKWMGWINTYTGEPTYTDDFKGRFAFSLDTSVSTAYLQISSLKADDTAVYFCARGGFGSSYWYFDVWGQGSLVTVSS VL: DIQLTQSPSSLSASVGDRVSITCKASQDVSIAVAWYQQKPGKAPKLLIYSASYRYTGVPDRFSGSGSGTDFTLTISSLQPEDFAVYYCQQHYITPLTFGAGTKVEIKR"
recorded_value = 0.393

[[record]]
binder = "hRS7-C8-D4 (antibody, human IgG1, kappa, V domains shown, linker-drug comp8 on cysteines of reduced interchain disulfides; DAR 3.52) VH: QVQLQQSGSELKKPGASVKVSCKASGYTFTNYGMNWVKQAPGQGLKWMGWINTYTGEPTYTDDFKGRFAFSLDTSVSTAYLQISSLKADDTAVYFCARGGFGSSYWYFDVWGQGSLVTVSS VL: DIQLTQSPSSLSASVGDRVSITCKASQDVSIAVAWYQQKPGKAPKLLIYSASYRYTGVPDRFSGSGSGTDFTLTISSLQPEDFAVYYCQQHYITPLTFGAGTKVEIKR"
recorded_value = 0.323

